# measurement-target: Human TRPV4 (Homo sapiens, UniProt Q9HBA0)
# Sequence (Q9HBA0 whole entry): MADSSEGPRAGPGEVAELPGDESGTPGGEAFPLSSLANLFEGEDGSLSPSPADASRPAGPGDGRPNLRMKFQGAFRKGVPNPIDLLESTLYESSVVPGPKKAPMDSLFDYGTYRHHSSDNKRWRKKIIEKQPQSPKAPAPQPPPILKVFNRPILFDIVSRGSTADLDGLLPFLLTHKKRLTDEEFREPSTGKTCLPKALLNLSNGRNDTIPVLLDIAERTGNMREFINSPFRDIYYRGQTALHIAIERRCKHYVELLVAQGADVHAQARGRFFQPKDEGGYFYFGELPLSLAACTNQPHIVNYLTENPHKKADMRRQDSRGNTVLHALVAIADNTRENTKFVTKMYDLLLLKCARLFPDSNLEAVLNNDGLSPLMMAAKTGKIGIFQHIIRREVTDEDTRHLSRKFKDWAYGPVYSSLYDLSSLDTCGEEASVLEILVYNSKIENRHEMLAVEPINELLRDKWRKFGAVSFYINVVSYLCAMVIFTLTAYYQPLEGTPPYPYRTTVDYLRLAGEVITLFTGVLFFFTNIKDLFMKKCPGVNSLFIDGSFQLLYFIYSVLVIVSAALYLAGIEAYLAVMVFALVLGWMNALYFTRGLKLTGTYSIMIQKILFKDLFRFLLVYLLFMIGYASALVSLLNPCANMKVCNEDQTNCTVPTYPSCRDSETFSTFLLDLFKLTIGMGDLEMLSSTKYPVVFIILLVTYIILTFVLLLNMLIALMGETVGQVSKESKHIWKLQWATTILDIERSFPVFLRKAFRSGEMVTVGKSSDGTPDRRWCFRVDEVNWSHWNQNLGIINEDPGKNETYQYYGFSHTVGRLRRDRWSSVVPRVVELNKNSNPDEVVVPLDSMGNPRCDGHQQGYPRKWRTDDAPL
# assay-details: TRPV4 calcium flux assay (FLIPR, antagonist mode)
# Type: cell-based
# Design: HiBiT (inferred from the expression read-out); host or cells: HEK293T
# condition-set: HEK293T cells transfected with hTRPV4; antagonist mode vs EC80 of TRPV4 agonist; average of at least 3 separate experiments; read-out: Human TRPV4 Ca2+ Assay IC50
readout-label: log10(IC50) (log10 of the value in µM)

> print(dat)
                                   molecule  readout.label  test.result
1  C=C1CC[C@@]2(CN(c3cnc(C(C)(C)O)cn3)C(=O)O2)C[C@@]1(C)Cn1cnc2ccc(C#N)cc21 (single isomer, unassigned) [Example 16]    log10(IC50)         0.33
2  CC1(C)C[C@](C)(Cn2cnc3ccc(C#N)cc32)C[C@@]2(CN(c3cnc(C(C)(C)O)cn3)C(=O)O2)C1 (single isomer, unassigned) [Example 17]    log10(IC50)         0.76
3  CCOc1ccccc1N1C[C@@]2(CCC(F)(F)[C@H](Cn3cnc4ccc(C#N)cc43)C2)OC1=O (single isomer, unassigned) [Example 13]    log10(IC50)        -0.30
4  CO[C@]1(Cn2cnc3ccc(C#N)cc32)CCC[C@@]2(CN(c3cnc(C(C)(C)O)cn3)C(=O)O2)C1 [Example 9]    log10(IC50)        -0.67
5  N#Cc1ccc2ncn(C[C@@H]3C[C@@]4(CCC3(F)F)CN(c3ccccc3Cl)C(=O)O4)c2c1 (single isomer, unassigned) [Example 12]    log10(IC50)        -0.99
6  CC(C)(O)c1cnc(N2C[C@@]3(CC[C@H]4C[C@@]4(Cn4cnc5ccc(C#N)cc54)C3)OC2=O)cn1 (single isomer, unassigned) [Example 8]    log10(IC50)        -0.41
